The following molecules are shown together with reported pKi values.
assay: Inhibition of Human prostatic Steroid 5-alpha-reductase; conditions: read-out: Ki app
Just the number, please; pKi means minus log10 of the concentration in mol/L.

Look over these answered cases.
{"MOLECULE": "CC(C)N(C(=O)[C@H]1CC[C@H]2[C@@H]3CCc4cc(CP(=O)(O)O)ccc4[C@H]3CC[C@]12C)C(C)C", "MEASUREMENT_NAME": "pKi", "RECORDED_MEASUREMENT": 6.13}
{"MOLECULE": "CC(C)N(C(=O)[C@H]1CCC2C3CC[C@H]4C=C(C(=O)O)CC[C@]4(C)C3CC[C@@]21C)C(C)C (some centres undefined)", "MEASUREMENT_NAME": "pKi", "RECORDED_MEASUREMENT": 7.52}
{"MOLECULE": "CC(C)N(C(=O)[C@H]1CCC2C3CC[C@H]4CC(CC(=O)O)=CC[C@]4(C)C3CC[C@@]21C)C(C)C (some centres undefined)", "MEASUREMENT_NAME": "pKi", "RECORDED_MEASUREMENT": 7.40}
{"MOLECULE": "CC(C)N(C(=O)[C@H]1CC[C@H]2[C@@H]3CCc4cc(C(=O)C(=O)O)ccc4[C@H]3CC[C@]12C)C(C)C", "MEASUREMENT_NAME": "pKi", "RECORDED_MEASUREMENT": 6.82}
{"MOLECULE": "CC(C)N(C(=O)[C@H]1CC[C@H]2[C@@H]3CCc4cc(C(F)(F)C(=O)O)ccc4[C@H]3CC[C@]12C)C(C)C", "MEASUREMENT_NAME": "pKi", "RECORDED_MEASUREMENT": 7.40}
{"MOLECULE": "CC(C)N(C(=O)[C@H]1CCC2C3CC[C@H]4C=C(CC(=O)O)CC[C@]4(C)C3CC[C@@]21C)C(C)C (some centres undefined)", "MEASUREMENT_NAME": "pKi", "RECORDED_MEASUREMENT": 7.07}
{"MOLECULE": "CC(C)N(C(=O)[C@H]1CCC2C3CC=C4C=C(CC(=O)O)CC[C@]4(C)C3CC[C@@]21C)C(C)C (some centres undefined)", "MEASUREMENT_NAME": "pKi", "RECORDED_MEASUREMENT": 6.35}
{"MOLECULE": "CC(C)N(C(=O)[C@H]1CCC2C3CC=C4C=C(C(=O)O)CC[C@]4(C)C3CC[C@@]21C)C(C)C (some centres undefined)", "MEASUREMENT_NAME": "pKi", "RECORDED_MEASUREMENT": 8.15}
{"MOLECULE": "CC(C)N(C(=O)[C@H]1CC[C@H]2[C@@H]3CCc4cc(CC(=O)O)ccc4[C@H]3CC[C@]12C)C(C)C", "MEASUREMENT_NAME": "pKi", "RECORDED_MEASUREMENT": 7.70}

Could you now look at the following molecule, please?
Query: Tell me pKi reported for CC(C)N(C(=O)[C@H]1CC[C@H]2[C@@H]3CCc4cc(CCC(=O)O)ccc4[C@H]3CC[C@]12C)C(C)C
Response: 6.54
